Below, each of the compounds is paired with its reported TGI value.
tested on: OVCAR-5 ovarian; test: NCI tumour cell line growth inhibition, 48 h

| COMPOUND | TARGET OF ASSAY | TGI |
| --- | --- | --- |
| COc1ccc(-c2cn(C)c3c2-n2cccc2C3=O)cc1O | OVCAR-5 ovarian | 25.2 µM |
| CC1=C[P+](c2ccccc2)(c2ccccc2)c2ccccc2O1 | OVCAR-5 ovarian | > 100 µM |
| N[C@H]1CCC[C@@H](O)C1O (some centres not stated) | OVCAR-5 ovarian | > 100 µM |
| O=C(Cn1c2ccc(Br)cc2c2nc3ccccc3nc21)NCc1ccccc1 | OVCAR-5 ovarian | > 100 µM |
| CS(=O)(=O)OCCN(CCOS(C)(=O)=O)c1ccc(C=Nc2ccc(-c3csc(Cc4ccccc4)n3)cc2)c(Cl)c1 | OVCAR-5 ovarian | 99.1 µM |
| COc1ccc(SCc2cc(OC)ccc2OC)cc1 | OVCAR-5 ovarian | > 100 µM |
| COc1ccc2nc3cc(Cl)ccc3c(Nc3ccccc3-c3ccccc3Nc3c4ccc(Cl)cc4nc4ccc(OC)cc34)c2c1 | OVCAR-5 ovarian | > 85.9 µM |
| CC(C#N)(NO)C(C)(C#N)NO (configuration not stated) | OVCAR-5 ovarian | > 100 µM |
| O=C(O)CCC(O)=C1S(=O)(=O)OCCOS1(=O)=O | OVCAR-5 ovarian | > 100 µM |
| N=c1oc2cc(O)ccc2cc1C(=O)Nc1ccccn1 | OVCAR-5 ovarian | > 100 µM |
| CC(=O)c1cc2c(Br)cccc2oc1=O | OVCAR-5 ovarian | > 100 µM |
| O=C(Nc1cc(Cl)c(I)c(Cl)c1)C(F)(F)F | OVCAR-5 ovarian | 83 µM |
| O=C1/C(=C/c2ccc(F)cc2)COc2ccc(O)c(O)c21 | OVCAR-5 ovarian | 8.99 µM |
| COc1cc(/C=C/C(=O)c2c(C)n([O-])c3ccccc3[n+]2=O)cc(OC)c1OC | OVCAR-5 ovarian | 24.6 µM |
| Cc1cc(NC(=O)NCCOc2ccc(N3C(N)=NC(N)=NC3(C)C)cc2Cl)ccc1S(=O)(=O)F | OVCAR-5 ovarian | > 100 µM |
| O=C(n1c2ccccc2c2n[nH]c(=S)nc21)C(F)(F)F | OVCAR-5 ovarian | > 100 µM |
| Cc1cn(S(=O)(=O)c2ccccc2)c2c(OCc3ccccc3)cc([N+](=O)[O-])cc12 | OVCAR-5 ovarian | > 100 µM |
| CCOC(CBr)OC1C(=O)OCC1(C)C (configuration not stated) | OVCAR-5 ovarian | > 100 µM |
| CN(C)S(=O)(=O)c1cccc(C(=O)Nc2nc(-c3ccc(F)c(F)c3)cs2)c1 | OVCAR-5 ovarian | > 100 µM |
| C(=N\NC1=NCCCCN1)/c1ccc2ccccc2c1 | OVCAR-5 ovarian | 76.7 µM |
| Cc1nc(-n2nc(-c3ccccc3)cc2-c2ccccc2)sc1C(=O)CC(=O)C(=O)Nc1ccc(Cl)c(Cl)c1 | OVCAR-5 ovarian | > 100 µM |
| Cc1cc(NS(=O)(=O)c2ccc(NC(=O)c3ccc(Cl)c4c(Nc5ccc(S(=O)(=O)Nc6cc(C)on6)cc5)c5ccccc5nc34)cc2)no1 | OVCAR-5 ovarian | 38.6 µM |
